- Test system: HCC-2998 colon
- method.description: NCI tumour cell line growth inhibition, 48 h
reported.metric: log10 TGI (log10 of the value in µM)

[
  {
    "compound": "CC(=O)C1=C(N=[N+]=[N-])c2cccc3cccc(c23)C1=O",
    "assayed.system": "HCC-2998 colon",
    "log10 TGI": 1.51
  },
  {
    "compound": "O=C(/C=C/c1ccc(O)c(O)c1)OCCc1cccc2ccccc12",
    "assayed.system": "HCC-2998 colon",
    "log10 TGI": 1.37
  },
  {
    "compound": "CC(ONC(=O)c1cc(C(F)(F)F)cc(C(F)(F)F)c1)C(=O)Nc1ccc(Cl)cc1 (configuration not stated)",
    "assayed.system": "HCC-2998 colon",
    "log10 TGI": 1.23
  },
  {
    "compound": "CC(C)=CCc1c(O)cc(/C=C/c2cc(O)c3c(c2)C[C@@H]2C(C)(C)[C@H](O)[C@H](O)C[C@@]2(C)O3)cc1O",
    "assayed.system": "HCC-2998 colon",
    "log10 TGI": 0.62
  },
  {
    "compound": "ClCCN(CCCl)c1ccc(-n2cnc3c(Cl)ncnc32)cc1",
    "assayed.system": "HCC-2998 colon",
    "log10 TGI": 0.53
  },
  {
    "compound": "COc1ccc2[nH]cc(-c3nc(-c4cn(C)c5ccncc45)cs3)c2c1",
    "assayed.system": "HCC-2998 colon",
    "log10 TGI": 0.53
  },
  {
    "compound": "CCCN1C(=O)CCC2=C1CCc1c2ccc(Cl)c1Cl",
    "assayed.system": "HCC-2998 colon",
    "log10 TGI": 1.70
  }
]

The measurements presented in this section are drawn from PubChem BioAssay (NCI).
